# system_under_test: PDZ1 (61-151) from PSD-95 (human)
# measurement_description: fluorescence polarisation; 'direct' FP inhibition assay: TAMRA-nNOS (5 nM) with fixed PDZ1 (7.5 μM), PDZ2 (2.5 μM) or PDZ1-2 (0.3 μM); increasing control compound; 1 x TBS pH 7.4
Ends that are not written are not given here.
quantity: pKi
pKi (log units): -log10 of the concentration in mol/L.

pKi reading for {N‑cyclohexylethyl}-ETAV [N-cyclohexylethyl-ETAV] : 5.41
